Data origin, for the record: patent EP2272817A1

- experimental.system: recombinant human PAI-1 (Homo sapiens, UniProt P05121)
- Sequence (P05121 24-402): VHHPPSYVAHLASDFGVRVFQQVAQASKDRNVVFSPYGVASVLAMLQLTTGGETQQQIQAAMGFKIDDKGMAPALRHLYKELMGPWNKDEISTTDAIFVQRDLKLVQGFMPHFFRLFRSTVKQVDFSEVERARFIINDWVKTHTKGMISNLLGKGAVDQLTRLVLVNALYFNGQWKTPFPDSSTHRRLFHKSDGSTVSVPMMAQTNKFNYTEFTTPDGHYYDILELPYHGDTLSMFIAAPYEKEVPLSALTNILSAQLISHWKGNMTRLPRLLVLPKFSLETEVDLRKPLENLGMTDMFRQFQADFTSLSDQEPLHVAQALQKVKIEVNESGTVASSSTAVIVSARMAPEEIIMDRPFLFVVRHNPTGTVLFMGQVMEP
- assay.comment: Test Example 2: Human PAI-1 Inhibitory Activity (pH 7.4 HEPES buffer, 10 minutes incubation with two-chain tPA)
- Type: biochemical
- Design: purchased Molecular Innovations, Inc
- experimental.context: read-out: Inhibition Rate of PAI-1 Activity (%)
# inhibition at 0.3 µM >= 7% gives true, anything below gives false

CCCCCOc1ccc(-c2ccc(OCC(=O)O)c(Oc3ccc(C(C)(C)C)cc3)c2)cc1
false
COc1ccc(-c2ccc(OCC(=O)O)c(Oc3ccc(C(C)(C)C)cc3)c2)cc1
false
CC(C)(C)c1ccc(Oc2cc(-c3ccc(C(C)(C)C)cc3)ccc2CCC(=O)O)cc1
true
CCCCCOc1ccc(-c2ccc(C)cc2)cc1N(CCCCc1ccccc1)C(=O)C(=O)O
true
CCC(CC)Oc1ccc(-c2ccc(OCC(=O)O)c(Oc3ccc(C(C)(C)C)cc3)c2)cc1
true

INPUT: Entry CC(C)(C)c1cccc(Oc2cc(-c3ccc(OC(F)(F)F)cc3)ccc2CCC(=O)O)c1 : is its inhibition at 0.3 µM no less than 7%?
OUTPUT: false

INPUT: Then CCCCCOc1ccc(-c2ccc(OC(F)(F)F)cc2)cc1N(CCCCOc1ccccc1)C(=O)C(=O)O ?
OUTPUT: true

INPUT: Then CC(C)(C)c1ccc(COc2cccc(Oc3ccc(OC(F)(F)F)cc3)c2CCC(=O)O)cc1 ?
OUTPUT: false
